targetOrTestSystem: C-X-C chemokine receptor type 3 (Homo sapiens, UniProt P49682)
Sequence (P49682 whole entry): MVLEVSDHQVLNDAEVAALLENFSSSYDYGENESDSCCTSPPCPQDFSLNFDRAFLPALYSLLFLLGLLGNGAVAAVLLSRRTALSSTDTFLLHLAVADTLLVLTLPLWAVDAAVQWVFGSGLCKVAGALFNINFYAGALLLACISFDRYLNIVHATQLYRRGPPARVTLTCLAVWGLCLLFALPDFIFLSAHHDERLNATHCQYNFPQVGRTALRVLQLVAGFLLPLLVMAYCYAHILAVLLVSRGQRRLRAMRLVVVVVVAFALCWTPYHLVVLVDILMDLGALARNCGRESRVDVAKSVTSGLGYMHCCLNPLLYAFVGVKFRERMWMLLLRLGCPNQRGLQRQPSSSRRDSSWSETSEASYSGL
measurementProtocol: Antagonist activity at human CXCR3 expressed in CHO cells by FLIPR-based calcium mobilization assay
Type: functional, cell-based
pIC50: −log10 of the molar value.
Label scheme for pIC50: lower than 6 is Not satisfied, 6 and above is Satisfied.

As a guide, the following entries are already answered.
>>> label("Cc1cccc2c1n(C)c(=N)n2CC(=O)c1ccc(Cl)cc1")
"Satisfied"
>>> label("Cn1c(=N)n(CC(=O)c2ccc(Cl)cc2)c2ccccc21")
"Not satisfied"
>>> label("CCCc1cccc2c1n(C)c(=N)n2CC(=O)c1ccc(Cl)cc1")
"Satisfied"
>>> label("CCc1cccc2c1n(C)c(=N)n2CC(=O)c1ccc(Cl)cc1")
"Satisfied"

pIC50 >= 6 for `Cc1ccc2c(c1)n(C)c(=N)n2CC(=O)c1ccc(Cl)cc1` ? Not satisfied
